B1: DCAF4 (parent)
chain: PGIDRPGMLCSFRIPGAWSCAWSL

Variants of: B1
Assay: protein stability index of a GFP-peptide fusion (GPS, HEK-293T) (PSI 1-6); higher = more stable;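 also: lentivirally expressed fusions sorted by FACS into six bins by GFP to DsRed ratio, PSI derived from sequencing read proportions per bin multiplied by bin number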
Details: c terminus: a fixed tail appended
resultType: protein stability index
Please respond with just the number, no unit label.

S11G
3.07
S19T
2.96
P15C
2.96
G7S
3.09

// moving on: another record for protein stability index
Qu. Recorded protein stability index for P1H , please?
Ans. 2.96
